System: MDA-MB-468 breast
Assay: NCI-60 one-dose screen, 48 h
Conditions: 10 µM unless noted
Method: Growth inhibition of the MDA-MB-468 human Breast tumor cell line is measured as a screen for anti-cancer activity. Cells are grown in 96 well plates and exposed to the test compound for 48 hours. Compounds are tested at a single concentration, which is 10^-5 M for most compounds. The reported endpoint is percent growth (GI% or GIPRCNT), where numbers from 0 - 100% represent growth inhibition, and numbers from -100% - 0 represent cell death. […]
Compounds without any hit were thinned out: in the full panel of roughly 83,000, 20% have a hit. Active and inactive are the calls of the source. How the source made its calls: active means growth percent below 10; inactive means the rest.
Bench note: report the call from active, inactive

Example entries and their recorded answers appear below.
compound	assigned class
Cc1[nH]c2ccc(F)cc2c1CCNC(=O)C1CCN(C(=O)c2ccccc2)CC1	inactive
CCCCCCCCCCCCCCCCOc1ccc(C)cc1	inactive
CN1c2ccccc2C(C)(C)C12C=Cc1cc(O)ccc1O2 (configuration not stated)	active
COc1ccc(C(C)=O)cc1S(=O)(=O)Nc1c(N)nc(SC)[nH]c1=O	inactive
COc1ccc(-c2nnc(SCc3ccc(O)c4ncccc34)o2)cc1	inactive
Cc1cc(Cc2cc(C)c(N)cc2N)c(N)cc1N	inactive
CC(=O)Oc1ccccc1C(=O)Nc1ncc([N+](=O)[O-])s1	inactive
Cc1cccc2c(=O)c3c(sc12)c(NCCN)nc1ccccc13	active
CC(=O)N(C)c1ccc([N+](=O)[O-])cc1	inactive
CN1[C@@H]2CC[C@H]1/C(=C\c1ccccc1)C1=C2[C@@H](c2ccccc2)C(C#N)=C(N)O1	inactive

Request: What is the recorded call for this compound in the test? Cn1c2ccccc2c2nnc(N/N=C/c3ccccn3)nc21
Response: active

====

Test system: MDA-MB-468 breast
Test: NCI-60 one-dose screen, 48 h (100 = growth as untreated, 0 = no growth, -100 = all killed)
Settings: 10 µM unless noted
About 83,000 compounds went through this panel and 20% of them were active in at least one assay; those are over-represented in the sample as a whole.
Threshold 70%: growth strictly smaller gives true (1), otherwise false (0).

Example entries and their recorded answers appear below.
molecule	assigned class
O=C(CSc1nc2ccccc2c(=O)n1-c1ccccc1)Nc1ccc(C(=O)/C=C/c2ccc(Cl)cc2)cc1	false (0)
CN1C(=O)/C(=C2\SC(=Nc3ccccc3)N(Nc3ccccc3)C2=O)c2ccccc21	false (0)

Request: Input Cc1ccc(S(=O)(=O)N2C/C(=C\c3cc(F)cc(F)c3)C(=O)/C(=C/c3cc(F)cc(F)c3)C2)cc1 ; condition: growth strictly below 70%. Does it hold?
Response: true (1)

Request: Input CCN1C(=O)/C(=c2\sc3n(c2=O)NC2C(N=3)N(CC)C(=O)N2CC)c2ccccc21 (configuration not stated) ; condition: growth strictly below 70%. Does it hold?
Response: true (1)

Request: Input Cc1c(-c2ccc(C3CCCCC3)cc2)nc2ccc(F)cc2c1C(=O)O ; condition: growth strictly below 70%. Does it hold?
Response: false (0)

Request: Input COC1CC2CCC(C)C(O)(O2)C(=O)C(=O)N2CCCCC2C(=O)OC(C(C)CC2CCC(O)C(OC)C2)CC(=O)C(C)C=C(C)C(O)C(OC)C(=O)C(C)CC(C)/C=C/C=C/C=C1C (configuration not stated) ; condition: growth strictly below 70%. Does it hold?
Response: true (1)

Request: Input Cc1cc(O)c(C(C)(C)C)cc1Sc1cc(C(C)(C)C)c(O)cc1C ; condition: growth strictly below 70%. Does it hold?
Response: true (1)

Origin of measurements: PubChem BioAssay (NCI)
